I'd appreciate it if you could supply stoichiometry N values for the items below.
# system: the molecule itself
# assayRemarks: SEC; Superdex 200 10/300 GL, 4 °C, 20 mM HEPES pH 8.0; 1 mg/mL protein pre-incubated with 2 mM DTT
Response field accepts a number only; no unit should be typed.

// query stoichiometry N value for entry WT-PaHisGS (Psychrobacter arcticus ATP phosphoribosyltransferase catalytic subunit HisGS) (enzyme, HisGS, catalytic subunit of short-form ATP phosphoribosyltransferase, Psychrobacter arcticus) MTEVTNSLPTSGLLNEANDEFLGLTLALSKGRILEETMPLLRAAGVELLEDPEASRKLIFPTSNPNVRVLILRASDVPTYVEHGAADFGVAGKDVLLEHGANHVYELLDLKIAQCKLMTAGVKDAPLPNRRLRIATKYVNVARAYFASQGQQVDVIKLYGSMELAPLVGLGDLIVDVVDTGNTLRANGLEARDHICDVSSRLIVNQVSYKRKFALLEPILDSFKNSINSTS
2

// query stoichiometry N value for entry R32A-PaHisGS (enzyme, Psychrobacter arcticus, HisGS, Psychrobacter arcticus, with R32A; made from the WT-PaHisGS expression vector) MTEVTNSLPTSGLLNEANDEFLGLTLALSKGAILEETMPLLRAAGVELLEDPEASRKLIFPTSNPNVRVLILRASDVPTYVEHGAADFGVAGKDVLLEHGANHVYELLDLKIAQCKLMTAGVKDAPLPNRRLRIATKYVNVARAYFASQGQQVDVIKLYGSMELAPLVGLGDLIVDVVDTGNTLRANGLEARDHICDVSSRLIVNQVSYKRKFALLEPILDSFKNSINSTS
2
